# SYSTEM_UNDER_TEST: T1, human TREM2 (human, UniProt Q9NZC2 19-174, limits assumed)
# T1 sequence: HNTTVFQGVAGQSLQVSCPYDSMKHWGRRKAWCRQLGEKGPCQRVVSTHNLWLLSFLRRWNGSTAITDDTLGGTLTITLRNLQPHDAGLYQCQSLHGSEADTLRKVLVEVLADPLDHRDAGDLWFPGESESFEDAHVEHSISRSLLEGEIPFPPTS
# TEST_NAME: yeast-displayed Fab FACS, 2nd screen 2 nM
binding signal fold over 6E7 parental by entry:
Field format: number, assumed fold, no unit text.

For orientation, consider the following solved cases.
>  <BINDER>
V41 (Fab, V domains shown) VH: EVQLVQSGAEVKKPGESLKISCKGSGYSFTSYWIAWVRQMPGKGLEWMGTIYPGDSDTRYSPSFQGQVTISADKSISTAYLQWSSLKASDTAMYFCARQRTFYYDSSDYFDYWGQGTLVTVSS VL: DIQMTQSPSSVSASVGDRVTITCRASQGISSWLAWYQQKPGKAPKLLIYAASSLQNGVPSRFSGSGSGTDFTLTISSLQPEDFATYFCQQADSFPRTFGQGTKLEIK

>  <RECORDED_ENDPOINT>
binding signal fold over 6E7 parental

>  <VAL>
0.58

$$$$
>  <BINDER>
V2 (Fab, V domains shown) VH: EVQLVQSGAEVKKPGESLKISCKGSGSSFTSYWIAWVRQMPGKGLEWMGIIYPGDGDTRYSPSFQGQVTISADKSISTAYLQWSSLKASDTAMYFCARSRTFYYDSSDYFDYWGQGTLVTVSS VL: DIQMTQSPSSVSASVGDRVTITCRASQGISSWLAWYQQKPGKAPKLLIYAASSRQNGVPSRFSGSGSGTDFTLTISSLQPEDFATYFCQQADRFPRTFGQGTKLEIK

>  <RECORDED_ENDPOINT>
binding signal fold over 6E7 parental

>  <VAL>
2.23

$$$$

QUERY: For V88 (Fab, V domains shown) VH: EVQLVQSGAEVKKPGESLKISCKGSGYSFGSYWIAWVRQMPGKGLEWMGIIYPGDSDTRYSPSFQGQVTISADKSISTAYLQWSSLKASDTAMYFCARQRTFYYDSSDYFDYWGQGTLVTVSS VL: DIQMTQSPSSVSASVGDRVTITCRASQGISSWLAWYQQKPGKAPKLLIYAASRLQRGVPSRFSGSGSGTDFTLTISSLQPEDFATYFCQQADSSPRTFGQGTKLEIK , what is its reported binding signal fold over 6E7 parental?
RESULT: 5.57

QUERY: // returns reported binding signal fold over 6E7 parental for input V89 (Fab, V domains shown) VH: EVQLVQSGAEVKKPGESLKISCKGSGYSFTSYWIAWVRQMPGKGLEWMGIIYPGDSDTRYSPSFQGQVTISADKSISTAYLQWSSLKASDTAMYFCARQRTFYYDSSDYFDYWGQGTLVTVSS VL: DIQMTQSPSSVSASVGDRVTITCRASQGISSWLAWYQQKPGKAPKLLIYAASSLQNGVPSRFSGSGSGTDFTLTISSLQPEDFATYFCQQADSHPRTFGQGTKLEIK
RESULT: 0.94

QUERY: Which binding signal fold over 6E7 parental value is on record for V25 (Fab, V domains shown) VH: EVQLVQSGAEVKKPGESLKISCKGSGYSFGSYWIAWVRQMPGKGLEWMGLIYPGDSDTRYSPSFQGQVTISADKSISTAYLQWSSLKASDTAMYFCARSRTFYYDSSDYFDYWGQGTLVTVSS VL: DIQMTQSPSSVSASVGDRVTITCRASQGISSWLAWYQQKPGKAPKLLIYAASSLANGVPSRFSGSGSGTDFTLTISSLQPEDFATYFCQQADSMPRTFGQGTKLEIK ?
RESULT: 3.15
